- Test system: HEK-293T
- assay_name: Multiplex assay against HEK293T;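 on Population Tubulin-Different-Phenotype (%): share of the cells with healthy nuclei that show this phenotype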
- Type: toxicity, cell-based
- run_parameters: human, 48 h, 10 µM, compound concentration 10 uM, replicate 1
The threshold is 60%. Values of Population Tubulin-Different-Phenotype (%) beneath it are tagged t; values meeting or exceeding it are tagged f.

These solved cases illustrate the format of a correct answer.
N#CCNC(=O)c1ccc(-c2ccnc(Nc3ccc(N4CCOCC4)cc3)n2)cc1 | f
Cc1ccc(S(=O)(=O)NC2c3ccccc3Oc3ccccc32)cc1 | t
CC(C)c1cc(Nc2nc(N3CCC[C@H](N)C3)ncc2C(N)=O)cc(C(C)C)n1 | t
CCCCCNC(=N)N/N=C/c1c[nH]c2ccc(OC)cc12.O=C(O)/C=C\C(=O)O [TEGASEROD MALEATE] | t
CN1C(=O)[C@@H](NC(=O)c2cc3ccccc3[nH]2)N=C(c2ccccc2)c2ccccc21 [DEVAZEPIDE] | f
Cc1c(Nc2ccc(S(=O)(=O)N3CCN(C)CC3)cc2F)nc2ccc(-c3cnn(C4CC4)c3)cn2c1=O | t
CCCCN(CC)c1nc(C)nc2c1c(C)cn2-c1c(C)cc(C)cc1C.Cl | f
CN(c1cc(C(F)(F)F)nc(OCCC(=O)O)n1)c1cccc2c1CCC2 | t
CC(/C=C1\SC(=S)N(CCCC(=O)Nc2ccc(C(=O)O)c(O)c2)C1=O)=C\c1ccccc1 | t
Cl.NC[C@@H]1O[C@H](C23CC4CC(CC(C4)C2)C3)Cc2c1ccc(O)c2O | t

Quick check: does c1ccc(-c2oc3ncnc(NC[C@@H]4CCCO4)c3c2-c2ccccc2)cc1 have Population Tubulin-Different-Phenotype (%) under 60%?
f

Could you please tell me whether Population Tubulin-Different-Phenotype (%) recorded for N#Cc1cccc(C(=O)Nc2cc(-c3ccccc3)nn2-c2ccccc2)c1 is less than 60%?
f

# strict comparison: is reported Population Tubulin-Different-Phenotype (%) < 60%? input = CC(Cc1ccc(O)c(O)c1)C(C)Cc1ccc(O)c(O)c1 (centres undefined) [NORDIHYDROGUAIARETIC ACID]
t

====

Could you please report measured Population Healthy Nuclei (%) for the items listed next?
- Tested on: HEK-293T
- assay_name: Multiplex assay against HEK293T
- Assay type: toxicity, cell-based
- run_parameters: human, 12 h, 1 µM, compound concentration 1 uM, replicate 2
Please report the result as a number followed by the unit.

Below, each entry is followed by its recorded Population Healthy Nuclei (%) result.
Cc1c(P(=S)(c2ccccc2)c2ccccc2)n2ccccc2[n+]1C/C=C/c1ccccc1.[Br-] | 30%
CC(/C=C1\SC(=S)N(CCCC(=O)Nc2ccc(C(=O)O)c(O)c2)C1=O)=C\c1ccccc1 | 44%
CC(C)C[C@H](NC(=O)[C@H](Cc1ccccc1)NC(=O)CNC(=O)CNC(=O)[C@@H](N)Cc1ccc(O)cc1)C(=O)O | 50%

Proceed to the following item.
For CCCc1cc(C)[nH]c(=O)c1CNC(=O)c1cc(-c2ccc(N3CCN(C(C)C)CC3)nc2)cc2c1cnn2C(C)C , what is its reported Population Healthy Nuclei (%)?
27%

====

- Tested on: U2OS
- assay_name: Multiplex assay against U2OS
- Format: toxicity, cell-based
- run_parameters: human, 24 h, 10 µM, compound concentration 10 uM, replicate 1
Binary label based on Population Normal (%) with cut-off 90%: below gives Criterion met, not below gives Criterion not met.

Examples from the recorded data:
CCCCN(CC)c1nc(C)nc2c1c(C)cn2-c1c(C)cc(C)cc1C.Cl | Criterion not met
Cl.Cn1c2c(c3ccc(Cl)c(Cl)c31)C(C#N)C1(CCNCC1)NC2=O (centres undefined) | Criterion met
CN1C(=O)[C@@H](NC(=O)c2cc3ccccc3[nH]2)N=C(c2ccccc2)c2ccccc21 [DEVAZEPIDE] | Criterion not met
Cc1ccc(S(=O)(=O)NC2c3ccccc3Oc3ccccc32)cc1 | Criterion not met
CC[C@@H]1C(=O)N(C)c2cnc(Nc3ccc(C(=O)NC4CCN(C)CC4)cc3OC)nc2N1C1CCCC1 | Criterion not met
CN(c1cc(C(F)(F)F)nc(OCCC(=O)O)n1)c1cccc2c1CCC2 | Criterion not met
Cc1c(P(=S)(c2ccccc2)c2ccccc2)n2ccccc2[n+]1C/C=C/c1ccccc1.[Br-] | Criterion met
NC(=O)c1ccc2nc(-c3ccc(C4(N)CCC4)cc3)c(-c3ccccc3)n2n1 | Criterion not met
CCOc1ccn(-c2ccc(F)cc2)c(=O)c1C(=O)Nc1ccc(Oc2ccnc(N)c2Cl)c(F)c1 | Criterion not met
CCCCCNC(=N)N/N=C/c1c[nH]c2ccc(OC)cc12.O=C(O)/C=C\C(=O)O [TEGASEROD MALEATE] | Criterion met

Bench note: check whether CC(/C=C1\SC(=S)N(CCCC(=O)Nc2ccc(C(=O)O)c(O)c2)C1=O)=C\c1ccccc1 shows Population Normal (%) below 90%
Criterion not met

Please let me know if c1ccc(-c2oc3ncnc(NC[C@@H]4CCCO4)c3c2-c2ccccc2)cc1 shows Population Normal (%) below 90%.
Criterion met

I'd appreciate it if you could check whether Cc1c(Nc2ccc(S(=O)(=O)N3CCN(C)CC3)cc2F)nc2ccc(Nc3cnn(C4CC4)c3)cn2c1=O has Population Normal (%) smaller than 90%.
Criterion not met

API: query returns whether the molecule falls strictly under 90% in Population Normal (%). Query: Cc1ccc(NC(=O)Nc2cc(C(F)(F)F)ccc2F)cc1Nc1ccc2c(c1)NC(=O)/C2=C\c1ccc[nH]1
Criterion not met
